# Test system: 935938-334-R-J1-PDC complex spheroid viability;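 note: spheroids exposed to drugs for seven days before viability read; 100% = DMSO vehicle control wells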
# Test method notes: Anticancer human tumor 935938-334-R-J1-PDC patient-derived small intestine adenocarcinoma cell line growth inhibition [POLQ]
# Applied conditions: second compound 1 µM; first compound 0.0316 µM; stronger effect = lower value
Assay readout: viability, T/C (%)

{"Compound": "COc1cc(C2c3cc4c(cc3C(OC3OC5COC(C)OC5C(O)C3O)C3COC(=O)C23)OCO4)cc(OC)c1O (stereo unspecified) + Cc1cccc(N(C)C(=O)C2C(O)CCN2c2nc(C)cc(C(F)(F)F)c2C#N)c1", "Assay readout": "viability, T/C", "Result value": 116}
{"Compound": "CC1COCCN1c1cc(C2(O)CC3CCC(C2)O3)c2cnn(-c3ccn[nH]3)c2n1 (stereo unspecified) + Nc1ccc(C#CCN(C(=O)Cc2ncc(C(F)(F)F)cc2C(F)(F)F)c2ccc(F)cc2)nn1", "Assay readout": "viability, T/C", "Result value": 75.9}
{"Compound": "COc1ccc([C@@H](O)c2cc(-c3ncnc4cc(N5CCOCC5)ccc34)c(F)cc2Cl)nn1 + Cc1cccc(N(C)C(=O)C2C(O)CCN2c2nc(C)cc(C(F)(F)F)c2C#N)c1", "Assay readout": "viability, T/C", "Result value": 90.6}
{"Compound": "CCc1cc2c(N3CCc4c(cc(Cn5ccnc5)cc4-c4cn(C)nc4C(F)(F)F)C3=O)cc(C)nc2c(OC)n1 + COC1C(OC(N)=O)C(O)C(Oc2ccc3c(O)c(NC(=O)c4ccc(O)c(CC=C(C)C)c4)c(=O)oc3c2C)OC1(C)C", "Assay readout": "viability, T/C", "Result value": 64.7}
{"Compound": "Nc1ccn(C2OC(CO)C(O)C2(F)F)c(=O)n1 (stereo unspecified) + Cc1cccc(N(C)C(=O)C2C(O)CCN2c2nc(C)cc(C(F)(F)F)c2C#N)c1", "Assay readout": "viability, T/C", "Result value": 37.4}
{"Compound": "CNCc1ccc(-c2[nH]c3cc(F)cc4c3c2CCNC4=O)cc1 + Nc1ccc(C#CCN(C(=O)Cc2ncc(C(F)(F)F)cc2C(F)(F)F)c2ccc(F)cc2)nn1", "Assay readout": "viability, T/C", "Result value": 77.2}
{"Compound": "COc1cc2cc(C(=O)CCC(=O)O)sc2cc1OC + COC1C(OC(N)=O)C(O)C(Oc2ccc3c(O)c(NC(=O)c4ccc(O)c(CC=C(C)C)c4)c(=O)oc3c2C)OC1(C)C", "Assay readout": "viability, T/C", "Result value": 99.2}
{"Compound": "CCc1cc2c(N3CCc4c(cc(Cn5ccnc5)cc4-c4cn(C)nc4C(F)(F)F)C3=O)ccnc2c(OC)n1 + COC1C(OC(N)=O)C(O)C(Oc2ccc3c(O)c(NC(=O)c4ccc(O)c(CC=C(C)C)c4)c(=O)oc3c2C)OC1(C)C", "Assay readout": "viability, T/C", "Result value": 64.7}
{"Compound": "CC1COCCN1c1cc(-c2ccnn2C)c2ccnc(-c3ccn[nH]3)c2n1 (stereo unspecified) + Cc1cccc(N(C)C(=O)C2C(O)CCN2c2nc(C)cc(C(F)(F)F)c2C#N)c1", "Assay readout": "viability, T/C", "Result value": 90.2}
{"Compound": "Nc1ccn(C2OC(CO)C(O)C2(F)F)c(=O)n1 (stereo unspecified) + COC1C(OC(N)=O)C(O)C(Oc2ccc3c(O)c(NC(=O)c4ccc(O)c(CC=C(C)C)c4)c(=O)oc3c2C)OC1(C)C", "Assay readout": "viability, T/C", "Result value": 28.5}
{"Compound": "COc1cccc(OCCCN)c1-c1cc(Nc2cnc(C#N)cn2)n[nH]1 + Nc1ccc(C#CCN(C(=O)Cc2ncc(C(F)(F)F)cc2C(F)(F)F)c2ccc(F)cc2)nn1", "Assay readout": "viability, T/C", "Result value": 62.1}
{"Compound": "CC1COCCN1c1cc(-c2ccnn2C)c2ccnc(-c3ccn[nH]3)c2n1 (stereo unspecified) + COC1C(OC(N)=O)C(O)C(Oc2ccc3c(O)c(NC(=O)c4ccc(O)c(CC=C(C)C)c4)c(=O)oc3c2C)OC1(C)C", "Assay readout": "viability, T/C", "Result value": 59.7}
{"Compound": "COc1cc(C2c3cc4c(cc3C(OC3OC5COC(C)OC5C(O)C3O)C3COC(=O)C23)OCO4)cc(OC)c1O (stereo unspecified) + COC1C(OC(N)=O)C(O)C(Oc2ccc3c(O)c(NC(=O)c4ccc(O)c(CC=C(C)C)c4)c(=O)oc3c2C)OC1(C)C", "Assay readout": "viability, T/C", "Result value": 105}
{"Compound": "C#Cc1c(F)ccc2cc(O)cc(-c3ncc4c(N5CC6CCC(C5)N6)nc(OCC56CCCN5CC(F)C6)nc4c3F)c12 (stereo unspecified) + Cc1cccc(N(C)C(=O)C2C(O)CCN2c2nc(C)cc(C(F)(F)F)c2C#N)c1", "Assay readout": "viability, T/C", "Result value": 92}
{"Compound": "CC[C@@]1(O)C(=O)OCc2c1cc1n(c2=O)Cc2cc3c(CN(C)C)c(O)ccc3nc2-1 + Cc1cccc(N(C)C(=O)C2C(O)CCN2c2nc(C)cc(C(F)(F)F)c2C#N)c1", "Assay readout": "viability, T/C", "Result value": 79.9}
{"Compound": "COc1cccc2c1C(=O)c1c(O)c3c(c(O)c1C2=O)CC(O)(C(=O)CO)CC3OC1CC(N)C(O)C(C)O1 (stereo unspecified) + COC1C(OC(N)=O)C(O)C(Oc2ccc3c(O)c(NC(=O)c4ccc(O)c(CC=C(C)C)c4)c(=O)oc3c2C)OC1(C)C", "Assay readout": "viability, T/C", "Result value": 66.8}
{"Compound": "COc1cccc2c1C(=O)c1c(O)c3c(c(O)c1C2=O)CC(O)(C(=O)CO)CC3OC1CC(N)C(O)C(C)O1 (stereo unspecified) + Nc1ccc(C#CCN(C(=O)Cc2ncc(C(F)(F)F)cc2C(F)(F)F)c2ccc(F)cc2)nn1", "Assay readout": "viability, T/C", "Result value": 58.9}
{"Compound": "CCc1cc2c(N3CCc4c(cc(Cn5ccnc5)cc4-c4cn(C)nc4C(F)(F)F)C3=O)ccnc2c(OC)n1 + Nc1ccc(C#CCN(C(=O)Cc2ncc(C(F)(F)F)cc2C(F)(F)F)c2ccc(F)cc2)nn1", "Assay readout": "viability, T/C", "Result value": 91.2}
{"Compound": "CC1COCCN1c1cc(C2(S(C)(=N)=O)CC2)nc(-c2ccnc3[nH]ccc23)n1 (stereo unspecified) + Nc1ccc(C#CCN(C(=O)Cc2ncc(C(F)(F)F)cc2C(F)(F)F)c2ccc(F)cc2)nn1", "Assay readout": "viability, T/C", "Result value": 118}
{"Compound": "COc1cc2cc(C(=O)CCC(=O)O)sc2cc1OC + Cc1cccc(N(C)C(=O)C2C(O)CCN2c2nc(C)cc(C(F)(F)F)c2C#N)c1", "Assay readout": "viability, T/C", "Result value": 91.7}
{"Compound": "CC[C@@]1(O)C(=O)OCc2c1cc1n(c2=O)Cc2cc3c(CN(C)C)c(O)ccc3nc2-1 + COC1C(OC(N)=O)C(O)C(Oc2ccc3c(O)c(NC(=O)c4ccc(O)c(CC=C(C)C)c4)c(=O)oc3c2C)OC1(C)C", "Assay readout": "viability, T/C", "Result value": 97.3}
